Values compiled from patent US20030068675.

- test.system: T1, ZFP SBS#1003 (synthetic)
- T1 chain: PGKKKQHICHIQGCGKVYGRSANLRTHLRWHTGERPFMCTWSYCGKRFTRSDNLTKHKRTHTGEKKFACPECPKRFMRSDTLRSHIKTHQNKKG
- test: EMSA
- particulars: tags: MBP fusion
observed.property: Kd (nM)
Return type: number; implicit unit nM.

Given ACGTAGTAG (dsDNA) DNA 1: ACGTAGTAG DNA 2: CTACTACGT , respond with its Kd. 0.118
